- PROTOCOL_DETAILS: In vivo kinetics experiment (radioactivity distribution)
- Set-up: species or system Wistar male rat
- TEST_PARAMETERS: rat, caudal vein, 10 min after administration
# Radioactivity distribution Fat values compiled below
PROPERTY_NAME: Radioactivity distribution Fat

[
  {
    "MOLECULE": "[123I]c1ccc2nc(-c3cncc(Cn4ccnn4)c3)n(C3CC3)c2c1 [[^123I] 603]",
    "RESULT": "0.11 ± 0.01 % ID/g"
  },
  {
    "MOLECULE": "[123I]c1ccc2nc(-c3cncc(Cn4ccnc4)c3)n(C3CC3)c2c1 [[^123I] 602]",
    "RESULT": "0.10 ± 0.01 % ID/g"
  },
  {
    "MOLECULE": "Fc1cc2nc(-c3cncc(Cn4ccnc4)c3)n(CCC[18F])c2cc1Cl [[^18F] 500]",
    "RESULT": "0.09 ± 0.02 % ID/g"
  },
  {
    "MOLECULE": "Fc1cc2nc(-c3cncc(Cn4ccnc4)c3)n(CC[18F])c2cc1Cl [[^18F] 100]",
    "RESULT": "0.08 ± 0.02 % ID/g"
  },
  {
    "MOLECULE": "FCCn1c(-c2cncc(Cn3ccnc3)c2)nc2cc(F)c([123I])cc21 [[^123I] 400]",
    "RESULT": "0.10 % ID/g"
  },
  {
    "MOLECULE": "Fc1cc2nc(-c3cncc(Cn4ccnc4)c3)n(CC[18F])c2cc1Br [[^18F] 200]",
    "RESULT": "0.08 ± 0.02 % ID/g"
  }
]

---

- PROTOCOL_DETAILS: In vivo kinetics experiment (radioactivity distribution)
- Parameters: species or system Wistar male rat
- TEST_PARAMETERS: 30 min after administration; rat i.v.; mean ± SD
PROPERTY_NAME: Radioactivity distribution Large intestine (% ID/g)

[
  {
    "MOLECULE": "FCCn1c(-c2cncc(Cn3cncc3[123I])c2)nc2cc(F)c(Cl)cc21 [[^123I] 610]",
    "UNIT_NAME": "% ID/g",
    "NUMERIC_RESULT": 0.16
  },
  {
    "MOLECULE": "FCCn1c(-c2cncc(Cn3ccnc3)c2)nc2ccc([123I])cc21 [[^123I] 604]",
    "UNIT_NAME": "% ID/g",
    "NUMERIC_RESULT": 0.14
  },
  {
    "MOLECULE": "CC(C)n1c(-c2cncc(Cn3ccnc3)c2)nc2ccc([123I])cc21 [[^123I] 606]",
    "UNIT_NAME": "% ID/g",
    "NUMERIC_RESULT": 0.23
  },
  {
    "MOLECULE": "COC(=O)c1cncn1[C@H](C)c1ccc(I)cc1 [[^123I] IMTO, (R)-[^123I]iodometomidate, reference compound]",
    "UNIT_NAME": "% ID/g",
    "NUMERIC_RESULT": 0.12
  },
  {
    "MOLECULE": "Cn1c(-c2cncc(Cn3ccnc3)c2)nc2ccc([123I])cc21 [[^123I] 607]",
    "UNIT_NAME": "% ID/g",
    "NUMERIC_RESULT": 0.12
  },
  {
    "MOLECULE": "Fc1cc2nc(-c3cncc(Cn4ccnc4)c3)n(Cc3ccc([123I])cc3)c2cc1Cl [[^123I] 605]",
    "UNIT_NAME": "% ID/g",
    "NUMERIC_RESULT": 0.16
  },
  {
    "MOLECULE": "COc1cc([123I])cc2c1nc(-c1cncc(Cn3ccnc3)c1)n2C1CC1 [[^123I] 609]",
    "UNIT_NAME": "% ID/g",
    "NUMERIC_RESULT": 0.18
  },
  {
    "MOLECULE": "CCn1c(-c2cncc(Cn3ccnc3)c2)nc2ccc([123I])cc21 [[^123I] 608]",
    "UNIT_NAME": "% ID/g",
    "NUMERIC_RESULT": 0.11
  }
]

---

# Radioactivity distribution Large intestine values compiled below
- PROTOCOL_DETAILS: In vivo kinetics experiment (radioactivity distribution)
- Set-up: species or system Wistar male rat
- TEST_PARAMETERS: 10 min after administration; rat i.v.; mean ± SD
PROPERTY_NAME: Radioactivity distribution Large intestine (% ID/g)

[
  {
    "COMPOUND": "FCCn1c(-c2cncc(Cn3ccnc3)c2)nc2ccc([123I])cc21 [[^123I] 604]",
    "UNIT_NAME": "% ID/g",
    "NUMERIC_RESULT": 0.11
  },
  {
    "COMPOUND": "FCCn1c(-c2cncc(Cn3cncc3[123I])c2)nc2cc(F)c(Cl)cc21 [[^123I] 610]",
    "UNIT_NAME": "% ID/g",
    "NUMERIC_RESULT": 0.13
  },
  {
    "COMPOUND": "Fc1cc2nc(-c3cncc(Cn4ccnc4)c3)n(Cc3ccc([123I])cc3)c2cc1Cl [[^123I] 605]",
    "UNIT_NAME": "% ID/g",
    "NUMERIC_RESULT": 0.13
  },
  {
    "COMPOUND": "COC(=O)c1cncn1[C@H](C)c1ccc(I)cc1 [[^123I] IMTO, (R)-[^123I]iodometomidate, reference compound]",
    "UNIT_NAME": "% ID/g",
    "NUMERIC_RESULT": 0.10
  },
  {
    "COMPOUND": "CC(C)n1c(-c2cncc(Cn3ccnc3)c2)nc2ccc([123I])cc21 [[^123I] 606]",
    "UNIT_NAME": "% ID/g",
    "NUMERIC_RESULT": 0.17
  },
  {
    "COMPOUND": "CCn1c(-c2cncc(Cn3ccnc3)c2)nc2ccc([123I])cc21 [[^123I] 608]",
    "UNIT_NAME": "% ID/g",
    "NUMERIC_RESULT": 0.12
  },
  {
    "COMPOUND": "COc1cc([123I])cc2c1nc(-c1cncc(Cn3ccnc3)c1)n2C1CC1 [[^123I] 609]",
    "UNIT_NAME": "% ID/g",
    "NUMERIC_RESULT": 0.16
  },
  {
    "COMPOUND": "Cn1c(-c2cncc(Cn3ccnc3)c2)nc2ccc([123I])cc21 [[^123I] 607]",
    "UNIT_NAME": "% ID/g",
    "NUMERIC_RESULT": 0.12
  }
]

---

- PROTOCOL_DETAILS: In vivo kinetics experiment (radioactivity distribution)
- Parameters: species or system Wistar male rat
- TEST_PARAMETERS: rat, caudal vein, 30 min after administration
- Method: Each of Compounds [^18F] 100, [^18F] 200, [^123I] 400, [^18F] 500, and [^123I] 601 to 610 obtained by the methods described in Examples 2, 4, 7, 9, 11, 13, 15, 17, 19, 21, 23, 25, 27, and 29, or [^123I] […] From the thus sacrificed rat, blood and organs (heart, lung, stomach, liver, spleen, small intestine, large intestine, kidney, bladder (including urine), muscle (lower limbs), brain, adrenal gland, testis, fat, femur, or thyroid gland) were excised, and the weights thereof were then measured. […]
# Adrenal gland/small intestine ratio of radioactivity accumulation values compiled below
PROPERTY_NAME: Adrenal gland/small intestine ratio of radioactivity accumulation

[
  {
    "COMPOUND": "Fc1cc2nc(-c3cncc(Cn4ccnc4)c3)n(CC[18F])c2cc1Br [[^18F] 200]",
    "NUMERIC_RESULT": 8.44
  },
  {
    "COMPOUND": "Fc1cc2nc(-c3cncc(Cn4ccnc4)c3)n(CCC[18F])c2cc1Cl [[^18F] 500]",
    "NUMERIC_RESULT": 5.99
  },
  {
    "COMPOUND": "Fc1cc2nc(-c3cncc(Cn4ccnc4)c3)n(CC[18F])c2cc1Cl [[^18F] 100]",
    "NUMERIC_RESULT": 11.12
  },
  {
    "COMPOUND": "[123I]c1ccc2nc(-c3cncc(Cn4ccnc4)c3)n(C3CC3)c2c1 [[^123I] 602]",
    "NUMERIC_RESULT": 9.24
  },
  {
    "COMPOUND": "FCCn1c(-c2cncc(Cn3ccnc3)c2)nc2cc(F)c([123I])cc21 [[^123I] 400]",
    "NUMERIC_RESULT": 9.24
  },
  {
    "COMPOUND": "[123I]c1ccc2nc(-c3cncc(Cn4ccnn4)c3)n(C3CC3)c2c1 [[^123I] 603]",
    "NUMERIC_RESULT": 3.25
  }
]
